TARGET OF ASSAY: Solute carrier family 2, facilitated glucose transporter member 4 (Rattus norvegicus)
Sequence (whole entry): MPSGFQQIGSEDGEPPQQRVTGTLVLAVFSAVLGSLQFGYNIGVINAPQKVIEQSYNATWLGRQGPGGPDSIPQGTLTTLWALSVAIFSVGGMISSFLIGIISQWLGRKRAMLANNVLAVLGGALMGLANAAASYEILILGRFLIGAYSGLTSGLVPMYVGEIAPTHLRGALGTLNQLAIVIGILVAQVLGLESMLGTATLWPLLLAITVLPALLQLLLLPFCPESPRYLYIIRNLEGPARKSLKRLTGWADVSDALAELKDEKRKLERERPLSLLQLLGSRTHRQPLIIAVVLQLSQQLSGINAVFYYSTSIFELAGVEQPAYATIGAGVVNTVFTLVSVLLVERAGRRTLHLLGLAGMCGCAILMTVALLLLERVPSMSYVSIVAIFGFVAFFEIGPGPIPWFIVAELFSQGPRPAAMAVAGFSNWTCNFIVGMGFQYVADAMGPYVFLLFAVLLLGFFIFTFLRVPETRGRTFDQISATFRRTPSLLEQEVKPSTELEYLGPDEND
PROTOCOL DESCRIPTION: Enhancement of GLUT4 translocation at plasma membrane of rat L6 cells expressing pIRAP-mOrange at 10 uM after 30 mins by fluorescence assay relative to control
READOUT: fold change (FC)

CC(C)=CCc1cc([C@@H]2CC(=O)c3ccc(O)c(CC=C(C)C)c3O2)cc(CC=C(C)C)c1O    2.75
CC(C)=CCc1cc([C@@H]2CC(=O)c3ccc(O)c(CC=C(C)C)c3O2)cc2c1OC(C)(C)C=C2    1.35 to 2.75
CC(C)=CCc1c(O)cc(O)c2c1OC[C@H]1c3cc4c(cc3O[C@@H]21)OCO4    0.79
CC(C)=CCc1c(O)c(CC=C(C)C)c2oc(-c3ccc(O)cc3)c(O)c(=O)c2c1O    1.35 to 2.75
CC(C)=CCc1cc([C@@H]2CC(=O)c3ccc(O)c(CC=C(C)C)c3O2)ccc1O    1.35 to 2.75
CC(C)=CCc1c2c(cc3c1O[C@H](c1ccc(O)cc1O)CC3=O)C=CC(C)(C)O2    1.35 to 2.75

Consider now this further compound.
[Q] Request the reported fold change (FC) associated with CC(C)=CCc1cc2c(c(CC=C(C)C)c1O)O[C@H](c1ccc(O)cc1)CC2=O
[A] 1.35 to 2.75
